# System: Erysiphe graminis f. sp. tritici
# ASSAY: Test L: wheat powdery mildew, preventive spray on wheat seedlings
# CONDITION NOTES: Blumeria graminis, in Triticum aestivum, 168 h, read-out: Test L disease control rating, 40 ppm (marked *); 100 = 100% disease control, 0 = no control
ENDPOINT: pest or weed control at 40 ppm
Remember to put the unit after the number in your answer.

Examples from the recorded data:
CC(C)Cn1c(-c2ccc(F)cc2Cl)c(Cl)nc(-n2cccn2)c1=O 98%
O=c1c(-n2cccn2)nc(Cl)c(-c2c(F)ccc(F)c2F)n1-c1ccccc1 20%
NC(=O)c1nc(Cl)c(-c2c(F)cc(F)cc2F)n(-c2cccc(F)c2)c1=O 98%
COc1ccc(Cn2c(-c3c(F)cccc3F)c(Cl)nc(-n3cccn3)c2=O)cc1 0%

Now for the compound whose pest or weed control at 40 ppm we want.
Lookup: Fill blank: measured pest or weed control at 40 ppm of the compound O=c1c(-n2cccn2)nc(Cl)c(-c2c(F)cc(F)cc2F)n1-c1cccc(F)c1 is ____.
Found: 100%
